Entries and their measured IC50 follow.
system-tested: human MT1 receptor membrane protein (Homo sapiens (Human), UniProt P48039)
Sequence (P48039 whole entry): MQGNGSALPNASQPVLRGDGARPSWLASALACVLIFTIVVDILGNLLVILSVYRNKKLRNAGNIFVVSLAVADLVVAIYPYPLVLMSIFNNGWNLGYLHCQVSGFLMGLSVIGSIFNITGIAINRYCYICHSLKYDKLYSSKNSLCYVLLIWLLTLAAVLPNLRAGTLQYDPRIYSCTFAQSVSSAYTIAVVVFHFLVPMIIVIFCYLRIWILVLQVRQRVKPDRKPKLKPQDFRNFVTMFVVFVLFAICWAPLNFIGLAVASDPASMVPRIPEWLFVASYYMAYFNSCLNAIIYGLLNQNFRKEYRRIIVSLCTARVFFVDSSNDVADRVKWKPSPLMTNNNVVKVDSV
The answer is to be given in nM; state only the numeric part.

INSERT INTO measurements (chem_smiles, measurement_name, reading_unit, numeric_value) VALUES
  ('COc1cc2c(CCNC(C)=O)cccc2cc1F', 'IC50', 'nM', 0.23);

Next:
Enquiry: State the recorded IC50 for this entry: `[2H]C([2H])([2H])Oc1cc2c(CCNC(C)=O)cccc2cc1Cl`
Return: 0.45

###

system-tested: UniProt P49286
Sequence (P49286 whole entry): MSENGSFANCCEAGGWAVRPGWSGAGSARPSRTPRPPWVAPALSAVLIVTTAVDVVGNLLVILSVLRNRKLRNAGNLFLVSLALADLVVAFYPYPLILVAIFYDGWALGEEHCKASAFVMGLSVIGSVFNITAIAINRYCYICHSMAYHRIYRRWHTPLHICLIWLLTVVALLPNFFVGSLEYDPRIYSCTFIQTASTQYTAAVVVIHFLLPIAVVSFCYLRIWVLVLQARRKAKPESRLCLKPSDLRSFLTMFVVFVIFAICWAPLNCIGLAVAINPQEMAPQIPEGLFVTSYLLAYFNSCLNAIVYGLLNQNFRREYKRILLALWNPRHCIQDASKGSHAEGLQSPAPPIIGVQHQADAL
measurement-name: IC50 (nM)
The answer is to be given in nM; state only the numeric part.

Enquiry: UniProt P49286 / IC50 / `[2H]C([2H])([2H])Oc1cc2c(CCNC(C)=O)cccc2cc1Cl` : value?
Return: 0.72

###

test-method-notes: In vivo metabolism study, rat oral/tail vein injection model
settings: male, Sprague-Dawley (SD), plasma, po, 5 mg/kg, oral 5 mg/kg, read-out: AUC(0-t)
measurement-name: AUC(0-t) (µg·h/mL)
The answer is to be given in µg·h/mL; state only the numeric part.

Enquiry: State the recorded AUC(0-t) for this entry: COc1ccc2cccc(CCNC(C)=O)c2c1 [Agomelatine, reference compound]
Return: 0.0516

###

Entries and their measured Concentration measured at incubation time point follow.
test-method-notes: In vitro metabolism study, human liver microsomal incubation system
Assay type: in vitro ADME
settings: incubation time 5 min
The answer is to be given in nM; state only the numeric part.

Record excerpt, results attached:
INSERT INTO measurements (molecule, numeric_value) VALUES
  ('[2H]C([2H])([2H])Oc1cc2c(CCNC(=O)CC)cccc2cc1Cl', 675),
  ('[2H]C([2H])([2H])Oc1ccc2cccc(CCNC(C)=O)c2c1 [d3-Ago, d3-Agomelatine, reference compound]', 235),
  ('COc1ccc2cccc(CCNC(C)=O)c2c1 [Agomelatine, reference compound]', 539);

Enquiry: State the recorded Concentration measured at incubation time point for this entry: `COc1cc2c(CCNC(C)=O)cccc2cc1F`
Return: 601

###

test-method-notes: In vivo metabolism study, rat oral/tail vein injection model
settings: male, Sprague-Dawley (SD), plasma, oral 5 mg/kg, read-out: t½ (converted)
measurement-name: half-life (min)
The answer is to be given in min; state only the numeric part.

Enquiry: State the recorded half-life for this entry: COc1ccc2cccc(CCNC(C)=O)c2c1 [Agomelatine, reference compound]
Return: 40.2

###

test-method-notes: In vitro metabolism study, human liver microsomal incubation system
Assay type: in vitro ADME
settings: incubation time 5 min
Returns one of Condition met or Condition not met; Condition met when Concentration measured at incubation time point is >= 500 nM.

Record excerpt, results attached:
INSERT INTO measurements (chem_smiles, qualitative_label) VALUES
  ('[2H]C([2H])([2H])Oc1cc2c(CCNC(C)=O)cccc2cc1Cl', 'Condition met'),
  ('COc1cc2c(CCNC(C)=O)cccc2cc1Cl', 'Condition not met'),
  ('CCC(=O)NCCc1cccc2cc(Cl)c(OC)cc12', 'Condition not met');

Okay, next one:
Enquiry: Confirm if Concentration measured at incubation time point reported for the compound `[2H]C([2H])([2H])Oc1cc2c(CCNC(C)=O)cccc2cc1F` is 500 nM or above.
Return: Condition not met

###

test-method-notes: In vivo metabolism study, rat oral/tail vein injection model
settings: male, SD, plasma, iv, 0.5 mg/kg, intravenous injection 0.5 mg/kg, read-out: AUC(0-t)
measurement-name: AUC(0-t) (ng·h/mL)
The answer is to be given in ng·h/mL; state only the numeric part.

Enquiry: State the recorded AUC(0-t) for this entry: [2H]C([2H])([2H])Oc1cc2c(CCNC(C)=O)cccc2cc1Cl [Example 1]
Return: 48.9

###

test-method-notes: In vivo metabolism study, rat oral/tail vein injection model
settings: male, Sprague-Dawley (SD), plasma, iv, 0.5 mg/kg, intravenous injection 0.5 mg/kg, read-out: AUC(0-t)
measurement-name: AUC(0-t) (ng·h/mL)
The answer is to be given in ng·h/mL; state only the numeric part.

Enquiry: State the recorded AUC(0-t) for this entry: COc1ccc2cccc(CCNC(C)=O)c2c1 [Agomelatine, reference compound]
Return: 102

###

test-method-notes: In vivo metabolism study, rat oral/tail vein injection model
settings: male, SD, plasma, po, 5 mg/kg, oral 5 mg/kg, read-out: AUC(0-t)
measurement-name: AUC(0-t) (ng·h/mL)
The answer is to be given in ng·h/mL; state only the numeric part.

Enquiry: State the recorded AUC(0-t) for this entry: `[2H]C([2H])([2H])Oc1cc2c(CCNC(C)=O)cccc2cc1Cl`
Return: 249

###

test-method-notes: In vivo metabolism study, rat oral/tail vein injection model
settings: male, SD, plasma, oral 5 mg/kg, read-out: t½ (converted)
measurement-name: half-life (min)
The answer is to be given in min; state only the numeric part.

Enquiry: State the recorded half-life for this entry: [2H]C([2H])([2H])Oc1cc2c(CCNC(C)=O)cccc2cc1Cl [Example 1]
Return: 29.4

###

Entries and their measured Concentration measured at incubation time point follow.
test-method-notes: In vitro metabolism study, human liver microsomal incubation system
Format: in vitro ADME
settings: incubation time 15 min
The answer is to be given in nM; state only the numeric part.

INSERT INTO results (molecule, reading_unit, numeric_value) VALUES
  ('[2H]C([2H])([2H])Oc1cc2c(CCNC(=O)CC)cccc2cc1Cl [Example 5]', 'nM', 116);

Enquiry: State the recorded Concentration measured at incubation time point for this entry: COc1ccc2cccc(CCNC(C)=O)c2c1 [Agomelatine, reference compound]
Return: 9

Enquiry: State the recorded Concentration measured at incubation time point for this entry: [2H]C([2H])([2H])Oc1cc2c(CCNC(C)=O)cccc2cc1Cl [Example 1]
Return: 194

Enquiry: State the recorded Concentration measured at incubation time point for this entry: [2H]C([2H])([2H])Oc1ccc2cccc(CCNC(C)=O)c2c1 [d3-Ago, d3-Agomelatine, reference compound]
Return: 4

Enquiry: State the recorded Concentration measured at incubation time point for this entry: COc1cc2c(CCNC(C)=O)cccc2cc1F [Example 4]
Return: 48

Enquiry: State the recorded Concentration measured at incubation time point for this entry: [2H]C([2H])([2H])Oc1cc2c(CCNC(C)=O)cccc2cc1F [Example 3]
Return: 29

Enquiry: State the recorded Concentration measured at incubation time point for this entry: COc1cc2c(CCNC(C)=O)cccc2cc1Cl [Example 2]
Return: 39

Enquiry: State the recorded Concentration measured at incubation time point for this entry: CCC(=O)NCCc1cccc2cc(Cl)c(OC)cc12 [Example 6]
Return: 56

Enquiry: State the recorded Concentration measured at incubation time point for this entry: CCC(=O)NCCc1cccc2cc(F)c(OC)cc12 [Example 7]
Return: 65

###

test-method-notes: In vitro metabolism study, human liver microsomal incubation system
Format: in vitro ADME
settings: incubation time 0 min, 1 μM, 1 mg/mL microsome, 37° C.
measurement-name: Concentration measured at incubation time point (µM)
The answer is to be given in µM; state only the numeric part.

INSERT INTO measurements (compound, reading_unit, numeric_value) VALUES
  ('COc1cc2c(CCNC(C)=O)cccc2cc1F', 'µM', 1.001),
  ('[2H]C([2H])([2H])Oc1cc2c(CCNC(C)=O)cccc2cc1F', 'µM', 1.000),
  ('CCC(=O)NCCc1cccc2cc(F)c(OC)cc12', 'µM', 1.000),
  ('CCC(=O)NCCc1cccc2cc(Cl)c(OC)cc12', 'µM', 1.000),
  ('COc1cc2c(CCNC(C)=O)cccc2cc1Cl', 'µM', 1.000);

Enquiry: State the recorded Concentration measured at incubation time point for this entry: `[2H]C([2H])([2H])Oc1cc2c(CCNC(C)=O)cccc2cc1Cl`
Return: 1.001

###

Entries and their measured Concentration measured at incubation time point follow.
test-method-notes: In vitro metabolism study, human liver microsomal incubation system
Assay type: in vitro ADME
settings: incubation time 0 min, 1 μM, 1 mg/mL microsome, 37° C.
The answer is to be given in nM; state only the numeric part.

Enquiry: State the recorded Concentration measured at incubation time point for this entry: [2H]C([2H])([2H])Oc1ccc2cccc(CCNC(C)=O)c2c1 [d3-Ago, d3-Agomelatine, reference compound]
Return: 999

Enquiry: State the recorded Concentration measured at incubation time point for this entry: [2H]C([2H])([2H])Oc1cc2c(CCNC(=O)CC)cccc2cc1Cl [Example 5]
Return: 1000

Enquiry: State the recorded Concentration measured at incubation time point for this entry: COc1ccc2cccc(CCNC(C)=O)c2c1 [Agomelatine, reference compound]
Return: 999
